system: Escherichia coli; test: Antibacterial activity against Escherichia coli 09-3 after 18 hrs by two fold serial dilution method; assay type: functional; conditions: 09-3, 18 h

[
  {
    "COMPOUND": "CC1(CN)CN(c2ccc3c(=O)c(C(=O)O)cn(C4CC4)c3n2)C/C1=N\\OCF (racemic)",
    "MIC": "> 128 µg/mL"
  },
  {
    "COMPOUND": "NCC1CN(c2nc3c(cc2F)c(=O)c(C(=O)O)cn3-c2ccc(F)cc2F)C/C1=N\\OCF (racemic)",
    "MIC": "> 128 µg/mL"
  },
  {
    "COMPOUND": "NCC1CN(c2ccc3c(=O)c(C(=O)O)cn(C4CC4)c3n2)C/C1=N\\OCF (racemic)",
    "MIC": "> 128 µg/mL"
  }
]

Cited source for all entries: ChEMBL document CHEMBL1926550
